Tested on: TO-N3 (biotin conjugate)
protocol-details: pull-down binding Z-score (relative to library population); higher = stronger binding
assay-context: RNA library: Library-2

[
  {
    "seq": "UUCAUAGGGAAGCCUUUCCAUGAA [hsa-mir-4738]",
    "pull-down binding Z-score": -0.559
  },
  {
    "seq": "UUUCAGAUAACUCGGGA [hsa-mir-4320]",
    "pull-down binding Z-score": 0.116
  },
  {
    "seq": "UCCAGACGGAGAUGCGA [hsa-mir-611]",
    "pull-down binding Z-score": 0.192
  },
  {
    "seq": "AAGGCUGAUGAAACUCAAGCCUU",
    "pull-down binding Z-score": -0.413
  },
  {
    "seq": "GAGUUGCUGAGUGGGUUGAUCUC [hsa-mir-6764]",
    "pull-down binding Z-score": 0.122
  },
  {
    "seq": "AGCAAGGUGCGUCGUAUCUUGCU [hsa-mir-4804]",
    "pull-down binding Z-score": -0.702
  },
  {
    "seq": "UUUUAGAA [hsa-mir-4443]",
    "pull-down binding Z-score": -0.913
  },
  {
    "seq": "CACAAUAUUUAGGACAACAAUAUU [hsa-mir-1302-6]",
    "pull-down binding Z-score": -0.362
  },
  {
    "seq": "GCUAUCUAACCUUAACUUGCCUGGUUGUGAUGGU [SHAPE_invivo_SARS-CoV-2_Motif_361]",
    "pull-down binding Z-score": 0.716
  },
  {
    "seq": "GUUUACAACAGUAGAC",
    "pull-down binding Z-score": -0.136
  },
  {
    "seq": "UAGUACAACAGGAGUCACCUUUUGUUAUGAUGUCAGCACCACCUGCUCAGUAUGAACUUAAGCAUGGUACAUUUACUUGUGCUA",
    "pull-down binding Z-score": -0.168
  },
  {
    "seq": "GUGGCACUGAGAAUUUGACUAAAGAAGGUGCCAC",
    "pull-down binding Z-score": 0.595
  },
  {
    "seq": "UAGGUGGUCGAAGUCAUCCACA [hsa-mir-7153]",
    "pull-down binding Z-score": 0.131
  },
  {
    "seq": "UGCAGCAGAAACGCUCA [SHAPE_invitro_SARS-CoV-2_Motif_303]",
    "pull-down binding Z-score": 0.371
  },
  {
    "seq": "CCCCAAAAGAAAUUAUCUUCUUAGAGGG",
    "pull-down binding Z-score": 0.286
  },
  {
    "seq": "GGAGGCAUGAAUGAGCCAUCUUUCCAAUGCCUUUC [hsa-mir-4743]",
    "pull-down binding Z-score": -0.118
  },
  {
    "seq": "GUUGGGGAACAGGUGGUUAGCACUUCAU [hsa-mir-5196]",
    "pull-down binding Z-score": 1.35
  },
  {
    "seq": "UCCUAUUACGGA [SHAPE_invivo_SARS-CoV-2_Motif_121]",
    "pull-down binding Z-score": -0.905
  },
  {
    "seq": "AUUUGAACUCUACUAAUGUCACUAUUGCAACCUACUGUACUGGUUCUAUACCUUGUAGUGUUUGUCUUAGUGGUUUAGAU",
    "pull-down binding Z-score": -1.06
  },
  {
    "seq": "CUUAAGUGGUUCGGGUAAAUCACUUUAA [hsa-mir-3977]",
    "pull-down binding Z-score": -0.623
  },
  {
    "seq": "AAAUAAGAGGCUAGGAUUGCCUCUUAUUU [hsa-mir-3201]",
    "pull-down binding Z-score": -1.18
  },
  {
    "seq": "GACCAAAAGUCAACAUUAAACAACAAAUCUUGGCC [hsa-mir-5708]",
    "pull-down binding Z-score": -1.02
  },
  {
    "seq": "GCUGGAUUUCCCAGCUUGACUCUAAC [hsa-mir-200a]",
    "pull-down binding Z-score": -0.337
  }
]
